Target: MERTK (UniProt Q12866)
Sequence (Q12866 whole entry, looked up): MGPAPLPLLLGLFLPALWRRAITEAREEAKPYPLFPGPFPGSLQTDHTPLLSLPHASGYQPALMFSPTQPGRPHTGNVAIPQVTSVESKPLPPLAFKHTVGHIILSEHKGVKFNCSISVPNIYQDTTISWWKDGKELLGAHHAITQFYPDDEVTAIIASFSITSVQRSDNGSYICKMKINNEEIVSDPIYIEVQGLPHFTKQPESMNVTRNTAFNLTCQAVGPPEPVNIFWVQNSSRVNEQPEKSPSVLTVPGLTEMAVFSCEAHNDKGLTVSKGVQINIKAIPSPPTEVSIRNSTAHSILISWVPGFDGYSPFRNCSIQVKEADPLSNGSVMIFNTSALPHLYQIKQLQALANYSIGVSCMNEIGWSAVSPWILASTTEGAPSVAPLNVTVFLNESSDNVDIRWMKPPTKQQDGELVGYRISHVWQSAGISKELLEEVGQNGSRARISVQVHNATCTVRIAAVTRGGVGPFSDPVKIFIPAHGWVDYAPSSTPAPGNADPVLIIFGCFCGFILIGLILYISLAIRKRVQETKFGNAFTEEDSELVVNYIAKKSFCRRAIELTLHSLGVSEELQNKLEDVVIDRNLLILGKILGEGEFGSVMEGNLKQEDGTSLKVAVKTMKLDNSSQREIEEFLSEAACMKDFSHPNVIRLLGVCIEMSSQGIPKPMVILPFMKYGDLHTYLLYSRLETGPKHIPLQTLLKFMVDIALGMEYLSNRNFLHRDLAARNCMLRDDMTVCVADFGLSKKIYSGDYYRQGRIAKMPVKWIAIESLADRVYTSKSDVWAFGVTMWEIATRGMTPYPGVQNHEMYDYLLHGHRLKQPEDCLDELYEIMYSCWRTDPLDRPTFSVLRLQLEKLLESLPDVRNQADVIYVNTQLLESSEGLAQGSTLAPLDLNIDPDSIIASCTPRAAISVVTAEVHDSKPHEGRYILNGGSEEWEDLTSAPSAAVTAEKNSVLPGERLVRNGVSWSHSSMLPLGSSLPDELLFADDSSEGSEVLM
Assay: phosphorylation enrichment, bacterial display (enrichment ratio); higher = better substrate or ligand; peptides without Tyr show the background;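 further: 11-residue human phosphosite peptides and single-mutation variants displayed on the E. coli surface, counted by deep sequencing, each peptide's frequency after selection divided by its frequency in the unselected input library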;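 further: frequency after pTyr selection over input frequency; kinase dosed for 20-30% of maximal phosphorylation in three min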
sequences and their reported phosphorylation enrichment
PARAMETER: phosphorylation enrichment

- FSCLPCGRLAY [SLC52A2_Y305_Y305C]: 0.688
- IKETHYMVDRC: 0.481
- GKGGSYSKAES [HLA-E_Y341_W346S]: 0.447
- PYYASYPPSPD [GDAP2_Y491_T489A]: 11.2
- RLYARYFQGDL [PDK3_Y337]: 0.711
- HFPFQCHRQLF [F12_Y53_Y53C_YF]: 0.885
- TTANRYLKVSD [MYOM2_Y871]: 0.409
- FIGVTYKNEED [PDGFRA_Y993_YF]: 0.336
- SSEFHYVGGFF [CTSC_Y347_YF]: 0.428
- EIIPFYGMSSY [FNDC3B_Y175_T179S]: 0.728
- PPGRSYSPCDF [TNS1_Y793_Y796C_YF]: 0.676
- VDEVLYEDSSA [MTHFS_Y197_T202A]: 0.508
- VLDCHYPEDEV [C1QBP_Y188]: 0.556
- GISDEYHVIRH [GCDH_Y398]: 0.339
- IGNGYYFRVFS [MYBPC3_Y1136]: 0.449
- VECRVYAEDPF [PCCA_Y401_YF]: 0.481
- IRGNMYYENSY [EGFR_Y112]: 1.06
- YEDALYTVLHR [UNC13D_Y61]: 9.59
- AMIADYMFWLG [SPATA16_Y290]: 2.52
- ANVKWYRSGRE: 0.474
- LMQAEYWHDPI [PPT1_Y185_V181M]: 0.557
- TMEDSYRKQVV [KRAS_Y40_I36M]: 0.411
- HQPGEYIFHAE [FLT3_Y416]: 0.74
- SIKDKYVTAFY [KCNH2_Y611_L615F]: 0.358
- WQQQSYLFSGI [CTNNB1_Y30_D32Y_YF]: 0.414
- NNRVFYGNSDC [RS1_Y177_R182C]: 0.369
- RAIDMYLMGCF [GABRB2_Y308_K303R]: 0.601
- RMETAYGPSVT [MXRA5_Y2717_E2716A]: 0.444
- FPRAWYRRSIA [KIAA1109_Y4272]: 0.473
- FEGHSYSACTT [MMP9_Y241_R239H]: 0.562

###

Molecular target: MERTK (UniProt Q12866)
Assay: phosphorylation enrichment, bacterial display (enrichment ratio); higher = better substrate or ligand; peptides without Tyr show the background
Decide using phosphorylation enrichment: a value greater than or equal to 0.4 is met, a smaller one is not met.

- WEQELYSQLVY [WAS_Y102]: met
- IKGIRYLHHRG [GUCY2D_Y656]: not met
- LKKLEYLNLAL [LRRC6_Y70]: not met
- LSVEIHDRREY [ITGB7_Y753_Y753H]: not met
- HGDSAYHSQRH [ERBB3_Y1132_R1127H]: met
- RNDLDYMDSRR [GAA_Y407_W402R]: met
- GSPAPYRRRKR [MBD1_Y403_P401A]: met
- LWPIWYRCHRP [MRGPRX1_Y130]: met
- MDDKEYFSVHN [MET_Y1234_Y1230D_YF]: met
- EREFKYGAHNF [OAT_Y50_YF]: not met
- TEAGDYKLCFD [TMED1_Y103]: met
- FQKNSYSEELR [LMNA_Y211_I210S]: met
- THQKSYQPGRK [CEFIP_Y210_N208K]: not met
- CTTIHYTYMCN [TP53_Y234_N235T]: met
- DVSVVCSEVKT [FCRL4_Y493_Y493C]: met
- NRLTDYYEPLL [BBS10_Y536]: met
- WAFNLYDINKD [KCNIP3_Y174]: met
- QKMADYSNKLY [PDPR_Y104]: met
- EIRTQDEAMAS [GFAP_Y242_Y242D]: met
- ESDFPYSSSFE [SRPK2_Y427_T426P_YF]: met
- KTDVRYRSLGG [DYSF_Y1858_H1857R]: not met
- AELVRYFMEHH [PTPN11_Y80_Q79R_YF]: met
- SRLSAYPALEG [CD5_Y465_H461R]: met
- GGFNNYGFGSD [HNRNPH3_Y159_N163S_YF]: met
- VNKIFHPDFIV [LIG3_Y768_Y768H_YF]: met
- DRPASYLEKVR [KRT13_Y118_L115P]: not met

###

Target: FGFR1 (UniProt P11362)
Sequence (P11362 whole entry, looked up): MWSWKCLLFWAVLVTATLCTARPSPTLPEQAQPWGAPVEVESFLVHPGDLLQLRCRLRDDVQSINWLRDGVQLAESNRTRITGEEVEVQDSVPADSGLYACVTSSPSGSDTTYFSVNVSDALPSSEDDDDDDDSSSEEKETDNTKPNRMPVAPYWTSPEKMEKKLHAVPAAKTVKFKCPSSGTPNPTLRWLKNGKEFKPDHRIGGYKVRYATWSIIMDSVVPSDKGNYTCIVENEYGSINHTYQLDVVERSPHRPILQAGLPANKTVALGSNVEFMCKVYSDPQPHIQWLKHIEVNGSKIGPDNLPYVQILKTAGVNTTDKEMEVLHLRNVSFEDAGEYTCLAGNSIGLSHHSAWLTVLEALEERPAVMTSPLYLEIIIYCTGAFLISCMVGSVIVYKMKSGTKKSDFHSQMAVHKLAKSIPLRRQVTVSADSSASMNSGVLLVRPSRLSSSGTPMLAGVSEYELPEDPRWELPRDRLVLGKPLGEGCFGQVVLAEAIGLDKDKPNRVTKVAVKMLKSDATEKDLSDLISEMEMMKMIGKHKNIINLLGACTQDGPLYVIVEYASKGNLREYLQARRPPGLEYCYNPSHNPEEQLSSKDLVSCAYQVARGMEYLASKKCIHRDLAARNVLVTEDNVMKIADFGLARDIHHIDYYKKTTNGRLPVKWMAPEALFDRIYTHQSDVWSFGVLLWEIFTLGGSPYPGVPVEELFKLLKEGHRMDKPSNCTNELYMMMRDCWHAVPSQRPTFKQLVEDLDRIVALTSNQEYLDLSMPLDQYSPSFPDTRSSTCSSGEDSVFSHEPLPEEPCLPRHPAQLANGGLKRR
Assay: phosphorylation enrichment, bacterial display (enrichment ratio); higher = better substrate or ligand; peptides without Tyr show the background
Label rule, in plain words: phosphorylation enrichment of 0.5 and up is met, under 0.5 is not met.

- LRIAVYHEILI [CREBBP_Y1450_T1447I]: met
- SFPHEYGSQEG [RBM10_Y48_R46H_YF]: met
- ALLVFYAATIA [SLC20A2_Y187_P184L]: not met
- AGLEEYSAMRD [HRAS_Y64_Q61L]: met
- MWGSDYVQLSR [MAP3K4_Y582]: met
- DGLALYTGSAL [COL6A3_Y524_S521L]: not met
- GEEIKYTLWLS [OTC_Y55_M56T]: met
- RGDIFYTSKLW [AKR1C3_Y81_E77G]: met
- PLQNTYNYNVL [SLC4A1_Y553_K551N]: not met
- TTANRYLKVSD [MYOM2_Y871]: not met
- GAVGHYVLAER [HFE_Y342_M339V]: not met
- KNNDGYTDFAE [MCFD2_Y135_I136T_YF]: met
- GLRSFYETSKM [MAGED2_Y449_YF]: not met
- VNTTLYEKFTY [TEK_Y1108]: not met
- KSSDVYVSYDC [SORL1_Y136_Y141C]: met
- LTQRTYMLENA [GPAA1_Y49_S51L]: met
- SHMVDYQPFRK [TEX37_Y25_YF]: not met
- HEVHIYEKSGA [ARPC1B_Y35]: met
- FPSLPYSPVSS [CAMKK2_Y128_C123Y_YF]: met
- MFQVQYNSSVD [LRFN1_Y458_YF]: not met
- GNHVSYYQSDG [CACNA1C_Y1757]: met
- TSKLNYLDPRI [TOP1_Y723]: met
- RDSQLYAVDYE [MRPS34_Y34]: met
- LWPIWYRCRRP [MRGPRX1_Y130_H133R]: not met
- TPIYPYLLPKS [PLD2_Y580_T577I]: met
- QWPGPYDRPGA [HNRNPH2_Y210_R206W]: met

###

Target: Jak2 (UniProt O60674)
Sequence (O60674 whole entry, looked up): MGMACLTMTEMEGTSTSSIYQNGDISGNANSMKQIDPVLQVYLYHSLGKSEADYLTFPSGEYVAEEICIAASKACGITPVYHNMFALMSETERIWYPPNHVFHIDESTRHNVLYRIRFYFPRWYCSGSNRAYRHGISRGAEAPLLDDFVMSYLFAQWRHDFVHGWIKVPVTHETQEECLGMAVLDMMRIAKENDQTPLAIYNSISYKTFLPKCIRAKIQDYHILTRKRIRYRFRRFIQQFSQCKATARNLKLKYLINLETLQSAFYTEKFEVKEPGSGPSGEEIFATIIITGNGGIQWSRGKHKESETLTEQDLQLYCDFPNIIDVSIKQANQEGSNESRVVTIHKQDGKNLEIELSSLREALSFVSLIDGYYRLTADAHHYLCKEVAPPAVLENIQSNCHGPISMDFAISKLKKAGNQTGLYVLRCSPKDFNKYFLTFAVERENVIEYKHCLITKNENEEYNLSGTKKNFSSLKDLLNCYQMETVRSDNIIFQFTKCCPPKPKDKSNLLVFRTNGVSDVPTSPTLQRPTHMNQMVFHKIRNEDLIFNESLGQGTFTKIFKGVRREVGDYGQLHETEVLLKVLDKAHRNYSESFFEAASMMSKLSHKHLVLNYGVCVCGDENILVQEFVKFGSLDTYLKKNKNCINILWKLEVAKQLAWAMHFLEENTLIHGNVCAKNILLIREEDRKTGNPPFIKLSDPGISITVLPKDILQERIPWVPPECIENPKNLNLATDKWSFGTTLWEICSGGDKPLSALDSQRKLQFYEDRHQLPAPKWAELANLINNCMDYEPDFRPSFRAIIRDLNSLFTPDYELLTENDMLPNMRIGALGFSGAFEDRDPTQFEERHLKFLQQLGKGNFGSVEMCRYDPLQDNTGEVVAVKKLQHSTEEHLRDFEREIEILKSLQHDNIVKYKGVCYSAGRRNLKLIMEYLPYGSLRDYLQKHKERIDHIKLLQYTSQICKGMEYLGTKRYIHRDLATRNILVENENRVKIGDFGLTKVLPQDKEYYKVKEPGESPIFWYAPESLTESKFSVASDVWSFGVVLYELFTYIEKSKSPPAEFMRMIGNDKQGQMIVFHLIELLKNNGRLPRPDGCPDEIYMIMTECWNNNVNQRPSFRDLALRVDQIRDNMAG
Test: phosphorylation enrichment, bacterial display (enrichment ratio); higher = better substrate or ligand; peptides without Tyr show the background
Here the recorded phosphorylation enrichment is given for each entry.
PARAMETER: phosphorylation enrichment

* VEDHYYEGGIG [TKT_Y564] | 1.05
* FQKDVYNIPPS [NEDD9_Y177_D178N_YF] | 1.75
* EEGRVYVYRLS [ITGAE_Y549] | 0.997
* VVRSLYEDLED [VHL_Y185_I180V] | 1.21
* QEGPEYWDQNT [HLA-A_Y83_E87N] | 1.36
* FLAVEYHKPHI [IDS_Y225_G224E] | 1.05
* KDQGGYTMHQD [MAPT_Y29] | 0.542
* SMAKFYASGIA [ACADSB_Y373_E376G_YF] | 0.677
* RPQDGYRIVQH [PTPRT_Y1329] | 0.534

###

Target: FGFR1 (UniProt P11362)
Experiment: phosphorylation enrichment, bacterial display (enrichment ratio); higher = better substrate or ligand; peptides without Tyr show the background
PARAMETER: phosphorylation enrichment

- ASPKSYPSQKH [CAP2_Y316_T311A]: 0.356
- DYYDLYGGEKL [PTPN11_Y66_F71L]: 16.6
- LLREWYLPDPY [SIX3_Y225_Q227P]: 0.636
- QRNEEYCLLDS [ITK_Y198_R193Q]: 1.74
- QHNPEYVQQAT [LRRC7_Y1058_S1063T]: 0.505
- METKGYHSLPE [NR3C2_Y6]: 0.434
- VDSIEYEVASQ [SLC7A7_Y7_T5I]: 0.451
- HFGCVYYGTLL [MET_Y1093_H1094Y]: 2.69
- SAVVPYEPPEV [TP53_Y220_V216A]: 0.586
- FPLAEYTEVKT [ALDH1A3_Y497_A493P_YF]: 0.671
- AEEPIYIIVPA [BMXtide_2014]: 13.9
- LFMGDYVDRGF [PPP2CA_Y86_YF]: 0.822
- TTPGPHRSIYF [MPG_Y71_Y71H]: 0.579
- KVPELYEIHKE [BCR_Y554]: 0.593
- LNCDRYSVGLL [PDE6A_Y275]: 0.712
- REAAAYPHGRL [AGXT_Y297_L298P]: 0.25
- NGSFRYVIISQ [LRP1B_Y1988]: 0.603
- SNMPTYSGHFT [GRIN2A_Y1224]: 0.354
- PGVNFYFQVSA: 0.557
- KDGSGYISAAE [CALM1_Y100_N98S]: 0.456
- RVLQLYGCSPS [ASTL_Y279_K277Q]: 1.06
- VRSVDYVLFRS [FAM189B_Y361]: 2.09
- MCDKEYFSVHN [MET_Y1234_Y1230C_YF]: 1.78
- LKKLEYLNLAL [LRRC6_Y70]: 1.36
- MTRDIYRASYY [ALK_Y1278_A1274T]: 0.844
- SLEKSYKLPDG [ACTA1_Y242_E243K]: 0.467
- MKGDYYRSLAE [YWHAG_Y131_Y133S]: 0.96
- SGVSFYINLCQ [IGF2R_Y2025_N2020S_YF]: 0.787
- GTPVMYTYDEY [COL10A1_Y623]: 0.743
